Measured solubility at 2 h, listed per entry.
assay: Solubility of peptide compounds in buffer formulations (Table 5); format: physicochemical; settings: aqueous buffer; 50 mM phosphate buffer pH 6.5, 2 h agitation, target 1 mg/ml; read-out: Solubility, Buffer pH 6.5
Numbered stars: 1 amine (or outer) side, 2 acyl side, 3 side chain; on linkers, the order of the positions; unused ones are H or OH. Bridge positions count the residues as written; N and C are the ends. Square brackets hold non-standard residues; d marks the D form. Peptide text beside a SMILES is read from it. * marks the point of attachment. Lys(Me,(CH2)4NMe(CH2)5CO) = CN(CCCCCC(=O)[*:3])CCCCN(C)CCCC[C@H](N[*:1])C(=O)[*:2]; Lys(Me,(CH2)4NMe(CH2)4CO) = CN(CCCCC(=O)[*:3])CCCCN(C)CCCC[C@H](N[*:1])C(=O)[*:2]; Trp(7-Me) = Cc1cccc2c(C[C@H](N)C(=O)O)c[nH]c12; αMeLys(Me2) = CN(C)CCCC[C@](C)(N)C(=O)O; 2Nal = N[C@@H](Cc1ccc2ccccc2c1)C(=O)O; 3Pal = N[C@@H](Cc1cccnc1)C(=O)O; Thp = NC1(C(=O)O)CCOCC1; Me2NCH2CH2 = CN(C)CC*; Aib = CC(C)(N)C(=O)O; Sar = CNCC(=O)O
observed_property: solubility at 2 h (µg/mL)

compound: CC(=O)NCCCC[C@@H]1NC(=O)[C@H](Cc2c[nH]c3c(C)cccc23)NC(=O)CCCCN(C)CCCCN(C)CCCC[C@@H](C(=O)NCC(=O)N[C@@H](Cc2cccnc2)C(=O)N(C)CC(N)=O)NC(=O)C(C)(C)NC(=O)[C@H](Cc2ccc3ccccc3c2)NC(=O)[C@H](Cc2ccc(OCCN(C)C)cc2)NC(=O)C2(CCOCC2)NC1=O [compound 29] ([Trp(7-Me)]K(Ac)[Thp]Y(Me2NCH2CH2)[2Nal][Aib][Lys(Me,(CH2)4NMe(CH2)4CO)]G[3Pal][Sar]-NH2; lactam N-7)
unit_label: µg/mL
qualifier_sign: =
experimental_result: 850
--
compound: CC(=O)NCCCC[C@@H]1NC(=O)[C@H](Cc2c[nH]c3c(C)cccc23)NC(=O)CCCCCN(C)CCCCN(C)CCCC[C@@H](C(=O)N[C@@H](CC(N)=O)C(=O)N[C@@H](Cc2cccnc2)C(=O)N(C)CC(N)=O)NC(=O)[C@](C)(CCCCN(C)C)NC(=O)[C@H](Cc2ccc3ccccc3c2)NC(=O)[C@H](Cc2ccc(OCCN(C)C)cc2)NC(=O)C2(CCOCC2)NC1=O [compound 34] ([Trp(7-Me)]K(Ac)[Thp]Y(Me2NCH2CH2)[2Nal][αMeLys(Me2)][Lys(Me,(CH2)4NMe(CH2)5CO)]N[3Pal][Sar]-NH2; lactam N-7)
unit_label: µg/mL
qualifier_sign: ≥
experimental_result: 1120

====

Test: Protease stability in simulated intestinal fluids (FaSSIF) (Table 7)
Format: in vitro ADME
Settings: fassif with pancreatin, 240 min, 37° C., read-out: Remaining percentage of peptide compound, FaSSIF 240 (min)
Protocol: Studies were carried out in simulated intestinal fluid (SIF) and simulated gastric fluid (SGF) to evaluate gastric stability of the peptide compounds disclosed herein. […] To 76 μL of the Pepsin-SGF buffer, 4 μL of the 20 μM peptide stock solution was added and incubated at 37° C. […] The samples were centrifuged for 20 minutes and an aliquot of the supernatant 100 μL were transferred to a LoBind-MTP plate and analyzed by LCMS/MS. […]
Numbered stars: 1 amine (or outer) side, 2 acyl side, 3 side chain; on linkers, the order of the positions; unused ones are H or OH. Bridge positions count the residues as written; N and C are the ends. Square brackets hold non-standard residues; d marks the D form. Peptide text beside a SMILES is read from it. * marks the point of attachment. Lys(Me,(CH2)4NMe(CH2)5CO) = CN(CCCCCC(=O)[*:3])CCCCN(C)CCCC[C@H](N[*:1])C(=O)[*:2]; Lys(Me,(CH2)4NMe(CH2)4CO) = CN(CCCCC(=O)[*:3])CCCCN(C)CCCC[C@H](N[*:1])C(=O)[*:2]; X2 = O=C(Cc1ccc(-c2ccc(CC(=O)[*:2])cc2)cc1)[*:1]; Trp(7-Me) = Cc1cccc2c(C[C@H](N)C(=O)O)c[nH]c12; NH(CH2)9CO = O=C(CCCCCCCCCN[*:1])[*:2]; 2Nal = N[C@@H](Cc1ccc2ccccc2c1)C(=O)O; X1 = O=C(CCCCCCCCCCCCCN[*:1])[*:2]; 3Pal = N[C@@H](Cc1cccnc1)C(=O)O; Thp = NC1(C(=O)O)CCOCC1; Me2NCH2CH2 = CN(C)CC*; Aib = CC(C)(N)C(=O)O; Sar = CNCC(=O)O

compound: Cc1cccc2c(C[C@@H]3NC(=O)Cc4ccc(cc4)-c4ccc(cc4)CC(=O)NCCCC[C@@H](C(=O)N[C@@H](CC(N)=O)C(=O)N[C@@H](Cc4cccnc4)C(=O)N(C)CC(N)=O)NC(=O)C(C)(C)NC(=O)[C@H](Cc4ccc5ccccc5c4)NC(=O)[C@H](Cc4ccc(OCCN(C)C)cc4)NC(=O)C4(CCOCC4)NC(=O)[C@H](CCC(N)=O)NC3=O)c[nH]c12 [compound 15] ([Trp(7-Me)]Q[Thp]Y(Me2NCH2CH2)[2Nal][Aib]KN[3Pal][Sar]-NH2; linker N-7 via X2)
remaining at 4 h, 1 µM, %: 43

compound: CC(=O)NCCCC[C@@H]1NC(=O)[C@H](Cc2c[nH]c3ccccc23)NC(=O)CCCCN(C)CCCCN(C)CCCC[C@@H](C(=O)N[C@@H](CO)C(=O)N[C@@H](Cc2cccnc2)C(=O)N(C)CC(N)=O)NC(=O)C(C)(C)NC(=O)[C@H](Cc2ccc3ccccc3c2)NC(=O)[C@H](Cc2ccc(OCCN(C)C)cc2)NC(=O)C2(CCOCC2)NC1=O [compound 42] (WK(Ac)[Thp]Y(Me2NCH2CH2)[2Nal][Aib][Lys(Me,(CH2)4NMe(CH2)4CO)]S[3Pal][Sar]-NH2; lactam N-7)
remaining at 4 h, 1 µM, %: 23

compound: Cc1cccc2c(C[C@@H]3NC(=O)CCCCCCCCCCCCCNC(=O)CC[C@@H](C(=O)N[C@@H](CC(N)=O)C(=O)N[C@@H](Cc4cccnc4)C(=O)N(C)CC(N)=O)NC(=O)C(C)(C)NC(=O)[C@H](Cc4ccc5ccccc5c4)NC(=O)[C@H](Cc4ccc(OCCN(C)C)cc4)NC(=O)C4(CCOCC4)NC(=O)[C@H](CCC(N)=O)NC3=O)c[nH]c12 [compound 1] ([X1][Trp(7-Me)]Q[Thp]Y(Me2NCH2CH2)[2Nal][Aib]EN[3Pal][Sar]-NH2; lactam N-8)
remaining at 4 h, 1 µM, %: 90

compound: Cc1cccc2c(C[C@@H]3NC(=O)CCCCCN(C)CCCCN(C)CCCC[C@@H](C(=O)NCC(=O)N[C@@H](Cc4cccnc4)C(=O)N(C)CC(N)=O)NC(=O)C(C)(C)NC(=O)[C@H](Cc4ccc5ccccc5c4)NC(=O)[C@H](Cc4ccc(OCCN(C)C)cc4)NC(=O)C4(CCOCC4)NC(=O)[C@H](CCC(N)=O)NC3=O)c[nH]c12 [compound 26] ([Trp(7-Me)]Q[Thp]Y(Me2NCH2CH2)[2Nal][Aib][Lys(Me,(CH2)4NMe(CH2)5CO)]G[3Pal][Sar]-NH2; lactam N-7)
remaining at 4 h, 1 µM, %: 87

compound: Cc1cccc2c(C[C@@H]3NC(=O)CCCCCCCCCNC(=O)CC[C@@H](C(=O)N[C@@H](CC(N)=O)C(=O)N[C@@H](Cc4cccnc4)C(=O)N(C)CC(N)=O)NC(=O)C(C)(C)NC(=O)[C@H](Cc4ccc5ccccc5c4)NC(=O)[C@H](Cc4ccc(OCCN(C)C)cc4)NC(=O)C4(CCOCC4)NC(=O)[C@H](CCC(N)=O)NC3=O)c[nH]c12 [compound 5] ([NH(CH2)9CO][Trp(7-Me)]Q[Thp]Y(Me2NCH2CH2)[2Nal][Aib]EN[3Pal][Sar]-NH2; lactam N-8)
remaining at 4 h, 1 µM, %: 70

====

assay: Protease stability in simulated intestinal fluids (FaSSIF) (Table 7); assay type: in vitro ADME; conditions: fassif with pancreatin, 120 min, 37° C., read-out: Remaining percentage of peptide compound, FaSSIF 120 (min)
Numbered stars: 1 amine (or outer) side, 2 acyl side, 3 side chain; on linkers, the order of the positions; unused ones are H or OH. Bridge positions count the residues as written; N and C are the ends. Square brackets hold non-standard residues; d marks the D form. Peptide text beside a SMILES is read from it. * marks the point of attachment. Lys(Me,(CH2)4NMe(CH2)5CO) = CN(CCCCCC(=O)[*:3])CCCCN(C)CCCC[C@H](N[*:1])C(=O)[*:2]; Trp(7-Me) = Cc1cccc2c(C[C@H](N)C(=O)O)c[nH]c12; 2Nal = N[C@@H](Cc1ccc2ccccc2c1)C(=O)O; 3Pal = N[C@@H](Cc1cccnc1)C(=O)O; Thp = NC1(C(=O)O)CCOCC1; Me2NCH2CH2 = CN(C)CC*; Aib = CC(C)(N)C(=O)O; Sar = CNCC(=O)O
observed_property: remaining at 2 h, 1 µM

compound: Cc1cccc2c(C[C@@H]3NC(=O)CCCCCN(C)CCCCN(C)CCCC[C@@H](C(=O)NCC(=O)N[C@@H](Cc4cccnc4)C(=O)N(C)CC(N)=O)NC(=O)C(C)(C)NC(=O)[C@H](Cc4ccc5ccccc5c4)NC(=O)[C@H](Cc4ccc(OCCN(C)C)cc4)NC(=O)C4(CCOCC4)NC(=O)[C@H](CCC(N)=O)NC3=O)c[nH]c12 [compound 26] ([Trp(7-Me)]Q[Thp]Y(Me2NCH2CH2)[2Nal][Aib][Lys(Me,(CH2)4NMe(CH2)5CO)]G[3Pal][Sar]-NH2; lactam N-7)
experimental_result: 88%
